target: Tubulin (Homo sapiens) (UniProt P68371+Q9H4B7+P0DPH7+P68366+Q13509+Q71U36+P04350+Q3ZCM7+P07437+P68363+Q9BQE3+Q6PEY2+Q13885+Q9BVA1+Q9BUF5)
protocol details: Disruption of microtubule polymerization in human M21 cells assessed as induction of mitotic abnormalities at 5 times IC50 measured after 24 hrs by DAPI staining based immunofluorescence microscopic analysis
Type: cell-based
Active and inactive are the calls of the source. The calls are words filed in the database; no cut-off is given here.

- chemical string: "COc1cc(OS(=O)(=O)c2ccc(N3CCCC3=O)cc2)cc(OC)c1OC"
  Activity: "Active"
- chemical string: "O=C1CCCN1c1ccc(S(=O)(=O)Oc2cc(Br)cc(Br)c2)cc1"
  Activity: "Active"
- chemical string: "COc1cc(NS(=O)(=O)c2ccc(N3CCCC3=O)cc2)cc(OC)c1OC"
  Activity: "Active"
- chemical string: "O=C1CCCN1c1ccc(S(=O)(=O)Nc2cc(Br)cc(Br)c2)cc1"
  Activity: "Active"
- chemical string: "O=C1CCCN1c1ccc(S(=O)(=O)Nc2cccc(I)c2)cc1"
  Activity: "Active"
- chemical string: "COc1cc(OC)cc(OS(=O)(=O)c2ccc(N3CCCC3=O)cc2)c1"
  Activity: "Active"
